A collection of compounds and their measured Bliss excess
- System: LOU-NH91 (Squamous Cell Lung Carcinoma)
- Assay Info: Bliss excess, mean over the matrix (fraction); higher = more synergy;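 note: after 72 h of two-drug dosing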

# Compound, Bliss excess
rows = [
    ("CN(CCO)CC[C@H](CSc1ccccc1)Nc1ccc(S(=O)(=O)NC(=O)c2ccc(N3CCC([C@@H](O)c4ccccc4-c4ccc(Cl)cc4)CC3)cc2)cc1S(=O)(=O)C(F)(F)F [AZD4320] + Cn1cnc2c(F)c(Nc3ccc(Br)cc3Cl)c(C(=O)NOCCO)cc21 [Selumetinib] (first compound max 1 µM, 7x7, partner max 3 µM)", 0.0027),
    ("Cc1c2c(nn1C)CSCc1cc(n(C)n1)CSc1cc(c3ccccc3c1)OCCCc1c(C(=O)O)n(C)c3c-2c(Cl)ccc13 [AZD5991] + CCN(CCO)CCCOc1ccc2c(Nc3cc(CC(=O)Nc4cccc(F)c4)[nH]n3)ncnc2c1 [AZD2811] (first compound max 1 µM, 7x7, partner max 1 µM)", 0.0225),
    ("NC1(C(=O)N[C@@H](CCO)c2ccc(Cl)cc2)CCN(c2ncnc3[nH]ccc23)CC1 [Capivasertib] + C[C@@H]1COCCN1C2=NC(=NC(=C2)C3(CC3)[S@](=N)(=O)C)C4=C5C=CNC5=NC=C4 [AZD6738] (first compound max 10 µM, 7x7, partner max 10 µM)", -0.0192),
]

* * *

- System: PF-382 (T-Lymphoblastic Leukemia)
- Assay Info: Bliss excess, mean over the matrix (fraction); higher = more synergy
Kind request: treat -0.01 as inclusive, so Bliss excess at -0.01 or higher is true, anything lower is false.

# Compound, Tested On, Qualitative Label
records = [
    ("CC1(C)CCC(CN2CCN(c3ccc(C(=O)NS(=O)(=O)c4ccc(NCC5CCOCC5)c([N+](=O)[O-])c4)c(Oc4cnc5[nH]ccc5c4)c3)CC2)=C(c2ccc(Cl)cc2)C1 [Venetoclax] + CCN(CCO)CCCOc1ccc2c(Nc3cc(CC(=O)Nc4cccc(F)c4)[nH]n3)ncnc2c1 [AZD2811] (first compound max 1 µM, 7x7, partner max 1 µM)", "PF-382 (T-Lymphoblastic Leukemia)", "true"),
    ("CN(C)CCCOc1ccc(-c2ccc3ncc4c(c3c2)n(C2CCOCC2)c(=O)n4C)cn1 [AZD0156] + C=CCn1c(=O)c2cnc(Nc3ccc(N4CCN(C)CC4)cc3)nc2n1-c1cccc(C(C)(C)O)n1 [AZD1775] (first compound max 1 µM, partner max 1 µM)", "PF-382 (T-Lymphoblastic Leukemia)", "false"),
    ("C=CCn1c(=O)c2cnc(Nc3ccc(N4CCN(C)CC4)cc3)nc2n1-c1cccc(C(C)(C)O)n1 [AZD1775] + O=C(c1cc(Cc2n[nH]c(=O)c3ccccc23)ccc1F)N1CCN(C(=O)C2CC2)CC1 [Olaparib] (first compound max 1 µM, partner max 10 µM)", "PF-382 (T-Lymphoblastic Leukemia)", "false"),
    ("NC1(C(=O)N[C@@H](CCO)c2ccc(Cl)cc2)CCN(c2ncnc3[nH]ccc23)CC1 [Capivasertib] + Cn1cnc2c(F)c(Nc3ccc(Br)cc3Cl)c(C(=O)NOCCO)cc21 [Selumetinib] (first compound max 10 µM, 7x7, partner max 10 µM)", "PF-382 (T-Lymphoblastic Leukemia)", "true"),
    ("COc1nnc2ccc(N3CCC(c4ccc(OCCN5CCN(C)C(=O)[C@H]5C)cc4)CC3)nn12 [AZD5153] + Cn1cnc2c(F)c(Nc3ccc(Br)cc3Cl)c(C(=O)NOCCO)cc21 [Selumetinib] (first compound max 1 µM, 7x7, partner max 10 µM)", "PF-382 (T-Lymphoblastic Leukemia)", "true"),
    ("C[C@@H](c1ccc2nccn2c1)n1nnc2ncc(-c3cnn(C)c3)nc21 [Savolitinib] + CN(CC[C@H](CSC1=CC=CC=C1)NC2=C(C=C(C=C2)S(=O)(=O)NC(=O)C3=CC=C(C=C3)N4CCC(CC4)[C@H](C5=CC=CC=C5C6=CC=C(C=C6)Cl)O)S(=O)(=O)C(F)(F)F)CCO [AZD4320] (first compound max 1 µM, 7x7, partner max 1 µM)", "PF-382 (T-Lymphoblastic Leukemia)", "false"),
    ("CC1(C)CCC(CN2CCN(c3ccc(C(=O)NS(=O)(=O)c4ccc(NCC5CCOCC5)c([N+](=O)[O-])c4)c(Oc4cnc5[nH]ccc5c4)c3)CC2)=C(c2ccc(Cl)cc2)C1 [Venetoclax] + C1CN(CCC1(C(=O)N[C@@H](CCO)C2=CC=C(C=C2)Cl)N)C3=NC=NC4=C3C=CN4 [Capivasertib] (first compound max 1 µM, 7x7, partner max 3 µM)", "PF-382 (T-Lymphoblastic Leukemia)", "false"),
    ("Cc1nc(Nc2ncc(C(=O)Nc3c(C)cccc3Cl)s2)cc(N2CCN(CCO)CC2)n1 [Dasatinib] + CC(=O)Nc1cccc(-n2c(=O)n(C3CC3)c(=O)c3c(Nc4ccc(I)cc4F)n(C)c(=O)c(C)c32)c1 [Trametinib] (first compound max 2 µM, 7x7, partner max 1 µM)", "PF-382 (T-Lymphoblastic Leukemia)", "true"),
    ("CC(=O)Nc1cccc(-n2c(=O)n(C3CC3)c(=O)c3c(Nc4ccc(I)cc4F)n(C)c(=O)c(C)c32)c1 [Trametinib] + Cc1nc(-c2cn3c(n2)-c2ccc(-c4cnn(C(C)(C)C(N)=O)c4)cc2OCC3)n(C(C)C)n1 [Taselisib] (first compound max 1 µM, 7x7, partner max 10 µM)", "PF-382 (T-Lymphoblastic Leukemia)", "true"),
    ("CC(=O)c1c(C)c2cnc(Nc3ccc(N4CCNCC4)cn3)nc2n(C2CCCC2)c1=O [Palbociclib] + Cc1c2c(nn1C)CSCc1cc(n(C)n1)CSc1cc(c3ccccc3c1)OCCCc1c(C(=O)O)n(C)c3c-2c(Cl)ccc13 [AZD5991] (first compound max 10 µM, 7x7, partner max 1 µM)", "PF-382 (T-Lymphoblastic Leukemia)", "false"),
    ("CC1(C)CCC(CN2CCN(c3ccc(C(=O)NS(=O)(=O)c4ccc(NCC5CCOCC5)c([N+](=O)[O-])c4)c(Oc4cnc5[nH]ccc5c4)c3)CC2)=C(c2ccc(Cl)cc2)C1 [Venetoclax] + C[C@@H](Nc1cc(F)cc(F)c1)c1cc(C(=O)N(C)C)cc2c(=O)cc(N3CCOCC3)oc12 [AZD8186] (first compound max 1 µM, 7x7, partner max 3 µM)", "PF-382 (T-Lymphoblastic Leukemia)", "true"),
    ("NC1(C(=O)N[C@@H](CCO)c2ccc(Cl)cc2)CCN(c2ncnc3[nH]ccc23)CC1 [Capivasertib] + CC(=O)c1c(C)c2cnc(Nc3ccc(N4CCNCC4)cn3)nc2n(C2CCCC2)c1=O [Palbociclib] (first compound max 10 µM, 7x7, partner max 10 µM)", "PF-382 (T-Lymphoblastic Leukemia)", "false"),
    ("CS(=O)(=O)CCNCc1ccc(-c2ccc3ncnc(Nc4ccc(OCc5cccc(F)c5)c(Cl)c4)c3c2)o1 [Lapatinib] + NC1(c2ccc(-c3nc4ccn5c(=O)[nH]nc5c4cc3-c3ccccc3)cc2)CCC1 [MK-2206] (first compound max 10 µM, 7x7, partner max 10 µM)", "PF-382 (T-Lymphoblastic Leukemia)", "false"),
]

* * *

- Tested on: OCUB-M (Breast Carcinoma)
- Assay Info: Bliss excess, mean over the matrix (fraction); higher = more synergy
A collection of molecules and their measured Bliss excess
Recorded Metric: Bliss excess

# Molecule, Recorded Metric, Reported
measured = [
    ("Cn1cnc2c(F)c(Nc3ccc(Br)cc3Cl)c(C(=O)NOCCO)cc21 [Selumetinib] + CCN(CCO)CCCOc1ccc2c(Nc3cc(CC(=O)Nc4cccc(F)c4)[nH]n3)ncnc2c1 [AZD2811] (first compound max 10 µM, 7x7, partner max 1 µM)", "Bliss excess", -0.0959),
    ("Cc1c2c(nn1C)CSCc1cc(n(C)n1)CSc1cc(c3ccccc3c1)OCCCc1c(C(=O)O)n(C)c3c-2c(Cl)ccc13 [AZD5991] + C1CN(CCC1(C(=O)N[C@@H](CCO)C2=CC=C(C=C2)Cl)N)C3=NC=NC4=C3C=CN4 [Capivasertib] (first compound max 1 µM, 7x7, partner max 3 µM)", "Bliss excess", 0.0321),
    ("Cc1cc2ncnn2cc1Nc1ncc2c(n1)n(C1CCOCC1)c(=O)n2C [AZD7648] + C[C@@H]1COCCN1C2=NC(=NC(=C2)C3(CC3)[S@](=N)(=O)C)C4=C5C=CNC5=NC=C4 [AZD6738] (first compound max 10 µM, 7x7, partner max 10 µM)", "Bliss excess", 0.0509),
    ("C[C@@H](Oc1cc(-c2cnn(C3CCNCC3)c2)cnc1N)c1c(Cl)ccc(F)c1Cl [Crizotinib] + Cn1cnc2c(F)c(Nc3ccc(Br)cc3Cl)c(C(=O)NOCCO)cc21 [Selumetinib] (first compound max 10 µM, 7x7, partner max 10 µM)", "Bliss excess", 0.0034),
    ("COc1nnc2ccc(N3CCC(c4ccc(OCCN5CCN(C)C(=O)[C@H]5C)cc4)CC3)nn12 [AZD5153] + C[C@@H]1COCCN1C2=NC(=NC(=C2)C3(CC3)[S@](=N)(=O)C)C4=C5C=CNC5=NC=C4 [AZD6738] (first compound max 1 µM, 7x7, partner max 10 µM)", "Bliss excess", 0.0415),
    ("CC1(C)CCC(CN2CCN(c3ccc(C(=O)NS(=O)(=O)c4ccc(NCC5CCOCC5)c([N+](=O)[O-])c4)c(Oc4cnc5[nH]ccc5c4)c3)CC2)=C(c2ccc(Cl)cc2)C1 [Venetoclax] + CS(=O)(=O)CCNCc1ccc(-c2ccc3ncnc(Nc4ccc(OCc5cccc(F)c5)c(Cl)c4)c3c2)o1 [Lapatinib] (first compound max 1 µM, 7x7, partner max 10 µM)", "Bliss excess", -0.0181),
    ("Cc1c2c(nn1C)CSCc1cc(n(C)n1)CSc1cc(c3ccccc3c1)OCCCc1c(C(=O)O)n(C)c3c-2c(Cl)ccc13 [AZD5991] + C[C@@H](Nc1cc(F)cc(F)c1)c1cc(C(=O)N(C)C)cc2c(=O)cc(N3CCOCC3)oc12 [AZD8186] (first compound max 1 µM, 7x7, partner max 3 µM)", "Bliss excess", -0.0067),
    ("COc1cccc(OCCCN)c1-c1cc(Nc2cnc(C#N)cn2)n[nH]1 [Prexasertib] + O=C(c1cc(Cc2n[nH]c(=O)c3ccccc23)ccc1F)N1CCN(C(=O)C2CC2)CC1 [Olaparib] (first compound max 1 µM, 7x7, partner max 10 µM)", "Bliss excess", 0.0018),
    ("CN(C)CCCOc1ccc(-c2ccc3ncc4c(c3c2)n(C2CCOCC2)c(=O)n4C)cn1 [AZD0156] + C[C@@H]1COCCN1C2=NC(=NC(=C2)C3(CC3)[S@](=N)(=O)C)C4=C5C=CNC5=NC=C4 [AZD6738] (first compound max 1 µM, 7x7, partner max 10 µM)", "Bliss excess", -0.026),
    ("C=CCn1c(=O)c2cnc(Nc3ccc(N4CCN(C)CC4)cc3)nc2n1-c1cccc(C(C)(C)O)n1 [AZD1775] + Nc1ccn([C@@H]2O[C@H](CO)[C@@H](O)C2(F)F)c(=O)n1 [Gemcitabine] (first compound max 1 µM, partner max 0.3 µM)", "Bliss excess", 0.0679),
    ("Cc1cc2ncnn2cc1Nc1ncc2c(n1)n(C1CCOCC1)c(=O)n2C [AZD7648] + O=C(c1cc(Cc2n[nH]c(=O)c3ccccc23)ccc1F)N1CCN(C(=O)C2CC2)CC1 [Olaparib] (first compound max 10 µM, 7x7, partner max 10 µM)", "Bliss excess", -0.0467),
    ("Cc1c2c(nn1C)CSCc1cc(n(C)n1)CSc1cc(c3ccccc3c1)OCCCc1c(C(=O)O)n(C)c3c-2c(Cl)ccc13 [AZD5991] + C[C@@H]1COCCN1C2=NC(=NC(=C2)C3(CC3)[S@](=N)(=O)C)C4=C5C=CNC5=NC=C4 [AZD6738] (first compound max 1 µM, 7x7, partner max 10 µM)", "Bliss excess", 0.0339),
    ("CC(=O)c1c(C)c2cnc(Nc3ccc(N4CCNCC4)cn3)nc2n(C2CCCC2)c1=O [Palbociclib] + CC1(C)CCC(CN2CCN(c3ccc(C(=O)NS(=O)(=O)c4ccc(NCC5CCOCC5)c([N+](=O)[O-])c4)c(Oc4cnc5[nH]ccc5c4)c3)CC2)=C(c2ccc(Cl)cc2)C1 [Venetoclax] (first compound max 10 µM, 7x7, partner max 1 µM)", "Bliss excess", -0.0276),
    ("C[C@@H](Nc1cc(F)cc(F)c1)c1cc(C(=O)N(C)C)cc2c(=O)cc(N3CCOCC3)oc12 [AZD8186] + CC(=O)c1c(C)c2cnc(Nc3ccc(N4CCNCC4)cn3)nc2n(C2CCCC2)c1=O [Palbociclib] (first compound max 10 µM, 7x7, partner max 10 µM)", "Bliss excess", -0.0466),
]
